These data points were gathered from paper PMC9211397.

Test system: P. falciparum translation (P. falciparum lysate)
Assay: P. falciparum in vitro translation (PfIVT) assay, lysate-based, luciferase reporter
Format: biochemical, Plasmodium falciparum
Details: single-point screen, 30 μM; Pandemic Box
Exercise: state measured PfIVT inhibition at 30 μM (%) for each of the compounds provided.
One number for each entry, in %.

See these solved cases before continuing.
>>> print(df.to_string())
                                   compound  numeric_result
0          CC(C)Nc1ncnc2c1cnn2-c1ccc(Cl)cc1            62.6
1       O=C(Nc1nnc(-c2ccccc2)o1)c1ccc(F)cc1            74.6
2  Nc1nc(NC2Cc3ccc(F)cc3C2)nc(N2CCCCC2)n1 (centres unmarked)            73.3
3   O=C(O)c1cc(-c2ccc(Br)cc2)nc2ccc(Cl)cc12            63.2

Switching to the query record.
In plain terms, "C(=C\c1nc2ccccc2[nH]1)/c1ccc2c(c1)OCO2" has a documented PfIVT inhibition at 30 μM (%) of 89.9
